target: LdCYP5122A1 (Leishmania donovani, UniProt A0A3S7X0B6); experiment: biochemical
Sequence (A0A3S7X0B6 61-592): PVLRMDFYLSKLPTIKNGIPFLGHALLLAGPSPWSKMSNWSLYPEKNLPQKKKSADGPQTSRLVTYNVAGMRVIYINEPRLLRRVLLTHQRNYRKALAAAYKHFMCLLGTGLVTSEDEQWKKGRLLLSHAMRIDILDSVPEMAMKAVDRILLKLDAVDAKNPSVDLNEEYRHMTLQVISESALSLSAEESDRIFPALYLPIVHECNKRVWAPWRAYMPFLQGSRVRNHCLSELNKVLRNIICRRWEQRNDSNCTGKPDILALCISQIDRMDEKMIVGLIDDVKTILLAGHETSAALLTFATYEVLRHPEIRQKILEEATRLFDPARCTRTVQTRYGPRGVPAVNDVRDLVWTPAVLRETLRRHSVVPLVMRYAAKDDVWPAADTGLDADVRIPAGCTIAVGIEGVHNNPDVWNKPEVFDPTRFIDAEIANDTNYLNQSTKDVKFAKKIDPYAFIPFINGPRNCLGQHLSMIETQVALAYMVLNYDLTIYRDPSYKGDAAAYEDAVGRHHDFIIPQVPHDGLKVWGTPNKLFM
The label is Condition met for IC50 below 1000 nM and Condition not met for IC50 equal to or exceeding 1000 nM.

Below, 5 compounds whose answers are already recorded.
>>> qualitative_label("CCC(C)n1ncn(-c2ccc(N3CCN(c4ccc(OCC5COC(Cn6cncn6)(c6ccc(Cl)cc6Cl)O5)cc4)CC3)cc2)c1=O (centres unmarked)")
"Condition not met"
>>> qualitative_label("Clc1ccccc1C(c1ccccc1)(c1ccccc1)n1ccnc1")
"Condition met"
>>> qualitative_label("OC(Cn1cncn1)(Cn1cncn1)c1ccc(F)cc1F")
"Condition not met"
>>> qualitative_label("C[C@@H](c1ncncc1F)[C@](O)(Cn1cncn1)c1ccc(F)cc1F")
"Condition not met"
>>> qualitative_label("CC(=O)N1CCN(c2ccc(OCC3COC(Cn4ccnc4)(c4ccc(Cl)cc4Cl)O3)cc2)CC1 (centres unmarked)")
"Condition met"

Input line: Hello, is IC50 of the following compound strictly smaller than 1000 nM? Clc1ccc(COC(Cn2ccnc2)c2ccc(Cl)cc2Cl)c(Cl)c1 (centres unmarked)
Output line: Condition not met

Input line: Check if IC50 falls below 1000 nM for "C=C1CCN([C@H](C)[C@](O)(Cn2cncn2)c2ccc(F)cc2F)CC1" .
Output line: Condition not met

Input line: Is IC50 strictly under 1000 nM for the entry CC(C)N1CCN(c2ccc(OCC3COC(Cn4cncn4)(c4ccc(Cl)cc4Cl)O3)cc2)CC1 (centres unmarked) ?
Output line: Condition not met
